Values compiled from the supplement of paper PMC10567573.

B1: STK38L (parent)
chain: NWKETLVFPPEVPISEKAKDLILR

- Variants of: B1
- experimentDescription: protein stability index of a GFP-peptide fusion (GPS, HEK-293T) (PSI 1-6); higher = more stable;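 note: lentivirally expressed fusions sorted by FACS into six bins by GFP to DsRed ratio, PSI derived from sequencing read proportions per bin multiplied by bin number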
- protocolConditions: c terminus: a fixed tail appended
Assign protein stability index to each entry below.
One number for each entry.

Some entries whose results are on file:
>  <mutations>
D20H

>  <experimentalValue>
1.9

$$$$
>  <mutations>
R24Y

>  <experimentalValue>
1.63

$$$$
>  <mutations>
K19C

>  <experimentalValue>
2.87

$$$$
>  <mutations>
E11A

>  <experimentalValue>
2.87

$$$$
>  <mutations>
E4V

>  <experimentalValue>
2.38

$$$$
>  <mutations>
I22C

>  <experimentalValue>
3.07

$$$$
>  <mutations>
P10G

>  <experimentalValue>
2.49

$$$$
>  <mutations>
A18P

>  <experimentalValue>
3.1

$$$$
>  <mutations>
V12I

>  <experimentalValue>
3.52

$$$$
>  <mutations>
T5Q

>  <experimentalValue>
4.08

$$$$

Below are 2 variants. Give each one its protein stability index.
1. F8G
2. L23H

3.02
3.78

Below are 8 variants. Give each one its protein stability index.
1. P9E
2. W2P
3. E11D
4. W2H
5. I22Q
6. E11C
7. E11G
8. L21P

2.75
4.09
3.15
3.46
3.88
2.89
2.65
3.69

Below are 6 variants. Give each one its protein stability index.
1. I22K
2. L21M
3. V12F
4. V7Y
5. P10H
6. R24P

3.66
3.42
3.05
2.9
3.03
3.43

Below are 7 variants. Give each one its protein stability index.
1. N1M
2. V12S
3. K3I
4. R24I
5. E11V
6. F8N
7. R24M

1.98
3.86
2.42
1.88
3.03
3.1
2.64

Below are 4 variants. Give each one its protein stability index.
1. L21F
2. E16M
3. P9Q
4. V12H

1: 2.63; 2: 1.66; 3: 4.18; 4: 2.72

Below are 3 variants. Give each one its protein stability index.
1. K17D
2. D20Q
3. F8I

1. 3.89
2. 3
3. 3.43

Below are 6 variants. Give each one its protein stability index.
1. D20A
2. T5C
3. D20N
4. A18V
5. S15K
6. R24S

2.92
2.44
2.63
2.72
3.09
3.31
